system: 1 a replicon; test: HCV replicon luciferase reporter assay, 384 plate protocol, 1a replicon; type: cell-based; details: Hepatitis C virus; Table 1; *384 plate protocol and a 1 a replicon
compounds and their reported EC50

CNC(=O)c1c(-c2ccc(F)cc2)nc2ccc(-c3ccc(-c4ccccc4Cl)c(C(=O)NCC(C)C)c3)cn12 [drawing 163]: 250 to 1000 nM

Please turn your attention to the following entry.
Indicate the recorded EC50 value for this compound: CNC(=O)c1c(-c2ccc(F)cc2)nc2ccc(-c3cc(C(=O)NC4(c5ccccn5)CC4)c(OC)cc3Cl)cn12 [drawing 164]
2 to 250 nM

* * *

target: HCV NS5B RdRp genotype 1b (Hepatitis C virus genotype 1b, UniProt Q9WMX2); construct: The protein was expressed with an 18 amino acid C-terminal truncation to enhance the solubility; made in house; host or cells: E. coli BL21(DE3), pET21a vector; assay: HCV NS5B RdRp enzyme assay (standard / modified); type: biochemical; conditions: Table 1; HCV NS5B genotype 1b
Sequence (Q9WMX2 2420-2992): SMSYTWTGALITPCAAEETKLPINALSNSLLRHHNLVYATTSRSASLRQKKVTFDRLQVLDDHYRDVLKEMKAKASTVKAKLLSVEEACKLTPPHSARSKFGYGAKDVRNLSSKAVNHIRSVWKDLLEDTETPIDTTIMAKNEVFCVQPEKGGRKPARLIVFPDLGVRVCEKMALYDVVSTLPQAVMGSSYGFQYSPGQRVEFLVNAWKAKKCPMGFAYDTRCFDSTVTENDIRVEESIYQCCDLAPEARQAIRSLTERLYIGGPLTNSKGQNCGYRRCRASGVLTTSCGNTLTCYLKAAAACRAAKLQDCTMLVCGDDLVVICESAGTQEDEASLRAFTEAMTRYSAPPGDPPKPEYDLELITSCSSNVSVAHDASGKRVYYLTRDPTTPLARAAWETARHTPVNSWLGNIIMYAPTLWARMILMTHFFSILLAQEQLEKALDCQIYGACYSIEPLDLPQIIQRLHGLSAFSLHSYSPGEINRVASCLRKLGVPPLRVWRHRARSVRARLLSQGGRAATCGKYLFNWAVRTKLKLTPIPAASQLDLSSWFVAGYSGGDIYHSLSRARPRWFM
quantity: IC50

// below: answered compounds
CNC(=O)c1c(-c2ccc(F)cc2)nn2ccc(-c3cc(C(=O)NC4(C5CC5)CC4)c(OC)cc3C)c(F)c12: 2 to 250 nM
CNC(=O)c1c(-c2ccc(F)cc2)nc2ccc(C3CC3C(=O)NC3(c4ccccn4)CC3)cn12 (centres unmarked) [drawing 159]: > 10000 nM
CNC(=O)c1c(-c2ccc(F)cc2)nn2cccc(NC(=O)OC(C)(C)C)c12: > 10000 nM
CNC(=O)c1c(-c2ccc(F)cc2)nn2ccc(-c3cc(C(=O)NC4(C5CCCCC5)CC4)c(OC)cc3C)c(F)c12: 2 to 250 nM
CCN(c1cn2nc(-c3ccc(F)cc3)c(C(=O)NC)c2cc1C1CC1)S(C)(=O)=O: 2 to 250 nM
CNC(=O)c1c(-c2ccc(F)cc2)nn2cc(F)c(-c3cc(C(=O)NC4(c5ccccc5)CC4)ccc3C)cc12: 2 to 250 nM
CNC(=O)c1c(-c2ccc(F)cc2)oc2cnc(-c3cc(C(=O)NC4(c5ccccn5)CC4)ccc3C)cc12: 2 to 250 nM

Indicate the recorded IC50 value for this compound: CNC(=O)c1c(-c2ccccc2)nn2cc(N3CCCCS3(=O)=O)ccc12
> 10000 nM
